experiment-description: Inhibition of [3H]leucine uptake into CHO cells by L-amino acid transporters
Type: functional, cell-based
condition-details: Cricetulus griseus
# Lookup of reported IC50 keyed by entry

compound | censor-symbol | IC50 (µM)
CC(C)C[C@@H](CC(=O)O)[C@@H](C)N | > | 100000
CCC(CC)C(CN)CC(=O)O (stereo not drawn) | = | 146
CC(C)C[C@H](CN)CC(=O)O | = | 158
CCC(CC)CC(CN)CC(=O)O (stereo not drawn) | = | 142
CCC[C@@H](CC(=O)O)[C@@H](C)N | > | 8300
CC(C)C[C@@H](CN)CC(=O)O | = | 355
CC(C)C[C@H](CN)[C@H](C)C(=O)O | = | 117
CC(C)C[C@@H](CCN)C(=O)O | > | 10000
